Hello, the source for this data is ChEMBL document CHEMBL4229391, in case you need it.

- Test system: HeLa
- protocol.summary: Inhibition of SERCA in human HeLa cells assessed as increase in cytosolic calcium level at 9.77 x 10^-9M measured over 300 secs by Fluo-4 NW dye based FLIPR analysis relative to control
- Type: cell-based
assay.endpoint: inhibition

Example compounds with recorded inhibition:
Please indicate inhibition recorded for C/C=C(/C)C(=O)O[C@H]1C(C)=C2[C@H]([C@@H]1OC(=O)CCCCCCC)[C@@](C)(OC(C)=O)C[C@H](OC(=O)CCC)[C@@]1(O)[C@H]2OC(=O)[C@@]1(C)O [THAPSIGARGIN]
-2.7 to 10.5%

Please indicate inhibition recorded for CCCCCCCC(=O)O[C@H]1[C@H]2C(=C(C)[C@@H]1OC(=O)[C@H](C)CC)[C@@H]1OC(=O)[C@@](C)(O)[C@@]1(O)[C@@H](OC(=O)CCC)C[C@]2(C)OC(C)=O
1 to 7.1%

Please indicate inhibition recorded for C/C=C(/C)C(=O)O[C@@H]1C[C@H]2C(=C1C)[C@@H]1OC(=O)[C@@](C)(O)[C@@]1(O)[C@@H](OC(=O)C=C(C)C)C[C@]2(C)OC(C)=O
-4.7 to 4.6%

Please indicate inhibition recorded for CCCCCCCC(=O)O[C@H]1[C@H]2C(=C(C)[C@@H]1OC(=O)c1sccc1C)[C@@H]1OC(=O)[C@@](C)(O)[C@@]1(O)[C@@H](OC(=O)CCC)C[C@]2(C)OC(C)=O
-6.6 to 10%

Please indicate inhibition recorded for C/C=C(/C)C(=O)O[C@H]1C(C)=C2[C@H]([C@@H]1OC(=O)CCCCCCC)[C@@](C)(OC(C)=O)C[C@H](OC(=O)[C@@H](C)CC)[C@@]1(O)[C@H]2OC(=O)[C@@]1(C)O
-1.3 to 3.8%

Now turn to the next compound.
Please indicate inhibition recorded for C/C=C(/C)C(=O)O[C@H]1C(C)=C2[C@H]([C@@H]1OC(=O)CCCCC)[C@@](C)(OC(C)=O)C[C@H](OC(=O)CCC)[C@@]1(O)[C@H]2OC(=O)[C@@]1(C)O
-2.2 to 7.9%
